Cited source: patent US10457710B2

Could you please report measured Minimum inhibitory concentration for the items listed next?
Tested on: clinical strains of S. aureus
Test: MIC, microdilution, clinical strains
Assay type: cell-based
Settings: Staphylococcus aureus strain 3, Muller Hinton broth-cation adjusted, 0.02% BSA, 0.2% acetic acid
Description: Minimum inhibition concetrations (MICs) were determined against Escherichia coli (ATCC 25922), Staphylococcus aureus (ATCC 25923), Klebsiella pneumoniae (ATCC 10031) and Pseudomonas aeruginosa (ATCC 27853). […] The susceptibility of these microorganisms to Chain peptides were determined using micro broth dilution assay. […] Concentrations of Chain peptides and reference antibiotics ranged from 0.125 to 128 μg/ml and the MICs were recorded as the lowest concentration with no visual growth of bacteria. […]
Where a SMILES comes first, the peptide text is derived from it. [ ]: non-standard residue; d: D form.
Give bare numbers.

What does the record list as Minimum inhibitory concentration for CC(C)C[C@@H](NC(=O)[C@@H](CCCCN)NC(=O)[C@@H](Cc1c[nH]c2ccccc12)NC(=O)[C@@H](CCCCN)NC(=O)[C@@H](C)NC(=O)[C@@H](Cc1c[nH]cn1)NC(=O)[C@@H](CC(C)C)NC(=O)[C@@H](CCCNC(=N)N)NC(=O)[C@@H](Cc1c[nH]c2ccccc12)NC(=O)[C@H](N)Cc1c[nH]c2ccccc12)C(=O)N[C@H](Cc1c[nH]c2ccccc12)C(=O)O [Chain109D] (H-[dW][dW][dR][dL][dH][dA][dK][dW][dK][dL][dW]-OH) ?
2

Given CC(C)C[C@@H](NC(=O)[C@H](N)CCCNC(=N)N)C(=O)N[C@H](CCCCN)C(=O)N[C@H](Cc1c[nH]c2ccccc12)C(=O)N[C@H](Cc1ccccc1)C(=O)N[C@H](Cc1c[nH]c2ccccc12)C(=O)N[C@H](CC(C)C)C(=O)N[C@H](Cc1ccccc1)C(=O)N[C@H](CCCNC(=N)N)C(=O)N[C@H](CCCCN)C(=O)N[C@H](CCCNC(=N)N)C(=O)O [Chain307D] (H-[dR][dL][dK][dW][dF][dW][dL][dF][dR][dK][dR]-OH) , state its recorded Minimum inhibitory concentration.
2

Let us move to another entry and its Minimum inhibitory concentration.
Data request, read-out Minimum inhibitory concentration, for CC(C)C[C@@H](NC(=O)[C@@H](Cc1c[nH]c2ccccc12)NC(=O)[C@@H](Cc1ccccc1)NC(=O)[C@@H](Cc1c[nH]c2ccccc12)NC(=O)[C@@H](CCCCN)NC(=O)[C@@H](CCCNC(=N)N)NC(=O)[C@H](N)Cc1c[nH]c2ccccc12)C(=O)N[C@H](Cc1ccccc1)C(=O)N[C@H](CCCCN)C(=O)N[C@H](CCCCN)C(=O)N[C@H](CCCNC(=N)N)C(=O)O [Chain309D] (H-[dW][dR][dK][dW][dF][dW][dL][dF][dK][dK][dR]-OH)
8

====

For each of the compounds below, state its Minimum inhibitory concentration.
System: clinical strains of K. pneumoniae
Assay: MIC, microdilution, clinical strains
Type: cell-based
Conditions: Klebsiella pneumoniae strain 1, Muller Hinton broth-cation adjusted, 0.02% BSA, 0.2% acetic acid
Where a SMILES comes first, the peptide text is derived from it. [ ]: non-standard residue; d: D form.
Answers are plain numbers.

Suppose we examine the compound CC(C)C[C@@H](NC(=O)[C@H](N)CCCNC(=N)N)C(=O)N[C@H](CCCCN)C(=O)N[C@H](CCCNC(=N)N)C(=O)N[C@H](Cc1c[nH]c2ccccc12)C(=O)N[C@H](CCCNC(=N)N)C(=O)N[C@H](CC(C)C)C(=O)N[C@H](Cc1ccccc1)C(=O)N[C@H](CCCNC(=N)N)C(=O)N[C@H](CCCCN)C(=O)N[C@H](CCCNC(=N)N)C(=O)O [Chain306D] (H-[dR][dL][dK][dR][dW][dR][dL][dF][dR][dK][dR]-OH) ; what Minimum inhibitory concentration value has been reported?
128

Please look at the following compound next.
// query Minimum inhibitory concentration value for entry CC(C)C[C@@H](NC(=O)[C@@H](Cc1c[nH]c2ccccc12)NC(=O)[C@@H](Cc1ccccc1)NC(=O)[C@@H](Cc1c[nH]c2ccccc12)NC(=O)[C@@H](CCCCN)NC(=O)[C@@H](CCCNC(=N)N)NC(=O)[C@H](N)Cc1c[nH]c2ccccc12)C(=O)N[C@H](Cc1ccccc1)C(=O)N[C@H](CCCCN)C(=O)N[C@H](CCCCN)C(=O)N[C@H](CCCNC(=N)N)C(=O)O [Chain309D] (H-[dW][dR][dK][dW][dF][dW][dL][dF][dK][dK][dR]-OH)
128

====

Tested on: clinical strains of S. aureus
Assay: MIC, microdilution, clinical strains
Type: cell-based
Conditions: Staphylococcus aureus strain 4, Muller Hinton broth-cation adjusted, 0.02% BSA, 0.2% acetic acid
Where a SMILES comes first, the peptide text is derived from it. [ ]: non-standard residue; d: D form.
Measured quantity: Minimum inhibitory concentration

// worked examples, Minimum inhibitory concentration included
# Minimum inhibitory concentration lookup, item CC(C)C[C@@H](NC(=O)[C@@H](CCCCN)NC(=O)[C@@H](CCCCN)NC(=O)[C@@H](Cc1ccccc1)NC(=O)[C@@H](CC(C)C)NC(=O)[C@@H](Cc1c[nH]c2ccccc12)NC(=O)[C@@H](CCCNC(=N)N)NC(=O)[C@@H](Cc1c[nH]c2ccccc12)NC(=O)[C@@H](CCCCN)NC(=O)[C@@H](CCCNC(=N)N)NC(=O)[C@H](N)CCCCN)C(=O)O [Chain310D] (H-[dK][dR][dK][dW][dR][dW][dL][dF][dK][dK][dL]-OH)
8

Which Minimum inhibitory concentration is listed for CC(C)C[C@@H](NC(=O)[C@H](N)CCCNC(=N)N)C(=O)N[C@H](CCCCN)C(=O)N[C@H](CCCNC(=N)N)C(=O)N[C@H](Cc1c[nH]c2ccccc12)C(=O)N[C@H](CCCNC(=N)N)C(=O)N[C@H](CC(C)C)C(=O)N[C@H](Cc1ccccc1)C(=O)N[C@H](CCCNC(=N)N)C(=O)N[C@H](CCCCN)C(=O)N[C@H](CCCNC(=N)N)C(=O)O [Chain306D] (H-[dR][dL][dK][dR][dW][dR][dL][dF][dR][dK][dR]-OH) ?
16

More entries:
For CC[C@@H](C)[C@@H](N)C(=O)N[C@H](Cc1c[nH]c2ccccc12)C(=O)N[C@H](CCCCN)C(=O)N[C@H](CCCNC(=N)N)C(=O)N[C@H](Cc1ccccc1)C(=O)N[C@H](CCCNC(=N)N)C(=O)N[C@H](CC(C)C)C(=O)N[C@H](Cc1ccccc1)C(=O)N[C@H](CCCCN)C(=O)N[C@H](CCCCN)C(=O)N[C@H](Cc1c[nH]c2ccccc12)C(=O)O [Chain304D] (H-[dI][dW][dK][dR][dF][dR][dL][dF][dK][dK][dW]-OH) , what is its reported Minimum inhibitory concentration?
16

====

System: C. quillermondiae
Assay: MIC, clinical yeast strains
Type: cell-based
Design: unit: μg/ml
Conditions: C. quillermondiae clinical yeast strain 1
Where a SMILES comes first, the peptide text is derived from it. [ ]: non-standard residue; d: D form.
Record form. Attribute: Minimum inhibitory concentration. Fill in for each entry.

Looking for the measured Minimum inhibitory concentration of CC(C)C[C@@H](NC(=O)[C@H](N)CCCNC(=N)N)C(=O)N[C@H](CCCCN)C(=O)N[C@H](Cc1c[nH]c2ccccc12)C(=O)N[C@H](Cc1ccccc1)C(=O)N[C@H](Cc1c[nH]c2ccccc12)C(=O)N[C@H](CC(C)C)C(=O)N[C@H](Cc1ccccc1)C(=O)N[C@H](CCCNC(=N)N)C(=O)N[C@H](CCCCN)C(=O)N[C@H](CCCNC(=N)N)C(=O)O [Chain307D] (H-[dR][dL][dK][dW][dF][dW][dL][dF][dR][dK][dR]-OH) , can you help?
4

Consider the following items and state reported Minimum inhibitory concentration for each.
1. CC(C)C[C@@H](NC(=O)[C@@H](Cc1c[nH]c2ccccc12)NC(=O)[C@@H](Cc1ccccc1)NC(=O)[C@@H](Cc1c[nH]c2ccccc12)NC(=O)[C@@H](CCCCN)NC(=O)[C@@H](CCCNC(=N)N)NC(=O)[C@H](N)Cc1c[nH]c2ccccc12)C(=O)N[C@H](Cc1ccccc1)C(=O)N[C@H](CCCCN)C(=O)N[C@H](CCCCN)C(=O)N[C@H](CCCNC(=N)N)C(=O)O [Chain309D] (H-[dW][dR][dK][dW][dF][dW][dL][dF][dK][dK][dR]-OH)
2. C[C@@H]1[C@H](O)[C@@H](C)/C=C/C=C/C=C/C=C/C=C/C=C/C=C/[C@H](O[C@@H]2O[C@H](C)[C@@H](O)[C@H](N)[C@@H]2O)C[C@@H]2O[C@](O)(C[C@@H](O)C[C@@H](O)[C@H](O)CC[C@@H](O)C[C@@H](O)CC(=O)O[C@H]1C)C[C@H](O)[C@H]2C(=O)O
3. CC(C)C[C@@H](NC(=O)[C@H](N)CCCCN)C(=O)N[C@H](CCCCN)C(=O)N[C@H](Cc1c[nH]c2ccccc12)C(=O)N[C@H](Cc1ccccc1)C(=O)N[C@H](Cc1c[nH]c2ccccc12)C(=O)N[C@H](CC(C)C)C(=O)N[C@H](Cc1ccccc1)C(=O)N[C@H](CCCCN)C(=O)N[C@H](CCCCN)C(=O)N[C@H](CCCNC(=N)N)C(=O)O [Chain311D] (H-[dK][dL][dK][dW][dF][dW][dL][dF][dK][dK][dR]-OH)
4. CC(C)C[C@@H](NC(=O)[C@H](N)CCCNC(=N)N)C(=O)N[C@H](CCCCN)C(=O)N[C@H](Cc1c[nH]c2ccccc12)C(=O)N[C@H](Cc1ccccc1)C(=O)N[C@H](CC(C)C)C(=O)N[C@H](CC(C)C)C(=O)N[C@H](Cc1ccccc1)C(=O)N[C@H](CCCNC(=N)N)C(=O)N[C@H](CCCCN)C(=O)N[C@H](CCCNC(=N)N)C(=O)O [Chain308D] (H-[dR][dL][dK][dW][dF][dL][dL][dF][dR][dK][dR]-OH)
5. CC(C)C[C@@H](NC(=O)[C@@H](CCCCN)NC(=O)[C@@H](CCCCN)NC(=O)[C@@H](Cc1ccccc1)NC(=O)[C@@H](CC(C)C)NC(=O)[C@@H](Cc1c[nH]c2ccccc12)NC(=O)[C@@H](CCCNC(=N)N)NC(=O)[C@@H](Cc1c[nH]c2ccccc12)NC(=O)[C@@H](CCCCN)NC(=O)[C@@H](CCCNC(=N)N)NC(=O)[C@H](N)CCCCN)C(=O)O [Chain310D] (H-[dK][dR][dK][dW][dR][dW][dL][dF][dK][dK][dL]-OH)
6. CC[C@@H](C)[C@@H](N)C(=O)N[C@H](Cc1c[nH]c2ccccc12)C(=O)N[C@H](CCCCN)C(=O)N[C@H](CCCNC(=N)N)C(=O)N[C@H](Cc1ccccc1)C(=O)N[C@H](CCCNC(=N)N)C(=O)N[C@H](CC(C)C)C(=O)N[C@H](Cc1ccccc1)C(=O)N[C@H](CCCCN)C(=O)N[C@H](CCCCN)C(=O)N[C@H](Cc1c[nH]c2ccccc12)C(=O)O [Chain304D] (H-[dI][dW][dK][dR][dF][dR][dL][dF][dK][dK][dW]-OH)
7. CC(C)C[C@@H](NC(=O)[C@H](N)CCCNC(=N)N)C(=O)N[C@H](CCCCN)C(=O)N[C@H](CCCNC(=N)N)C(=O)N[C@H](Cc1c[nH]c2ccccc12)C(=O)N[C@H](CCCNC(=N)N)C(=O)N[C@H](CC(C)C)C(=O)N[C@H](Cc1ccccc1)C(=O)N[C@H](CCCNC(=N)N)C(=O)N[C@H](CCCCN)C(=O)N[C@H](CCCNC(=N)N)C(=O)O [Chain306D] (H-[dR][dL][dK][dR][dW][dR][dL][dF][dR][dK][dR]-OH)

8
2
4
4
8
16
4
